For each record, write down the corresponding IC50.
- Target of assay: RBD domain of the spike protein of SARS-CoV-2 virus (Acro Biosystems SPD-C52H3) (SARS-CoV-2, UniProt P0DTC2 319-537)
// units = nM; emit number, no label

Provide one value: measured IC50 of IMPI-054 (antibody, V domains shown) VH: EVQLVESGGGLIQPGGSLRLSCAASGLTVSSNYMSWVRQAPGKGLEWVSIIYSGGSTYYADSVKGRFTISRDNSKNTLYLQMNSLRAEDTAVYYCARLGGYYYYGMDVWGQGTTVTVSS VL: DIQMTQSPSSLSASVGERVTITCQASQDIRNYLNWYQKKPGKAPKLLIYDSSNLETGVPSRFSGSGSGTDFTFTISSLQPEDIATYYCQQYDNLPITFGQGTRLEIK
2.28

Provide one value: measured IC50 of IMPI-002 (antibody, V domains shown) VH: EVQLVESGGGLIQPGGSLRLSCAASGVTVSSNYMSWVRQAPGKGLEGVSVIYSGGSTYYADSVKGRFTISRDNSKNTLYLQMNSLRAEDTAVYYCARDTVVYGMDVWGQGTTVTVSS VL: DIQLTQSPSFLSASVGDRVTITCWASQGISSYLAWYQQKPGKAPKLLIYAASTLQSGVPSRFSGSGSGTEFTLTISSLQPEDFATYYCQQLNSYPLTFGGGTKVEIK
8.15

Provide one value: measured IC50 of IMPI-052 (antibody, V domains shown) VH: EVQLVESGGGLIQPGGSLRLSCAASGVTVSSNYMNWVRQAPGKGLEGVSVIYSGGTTYYADSVKGRFTISRDNSKNTLYLQMNSLRAEDTAVYYCARDTVVYGMDVWGQGTTVTVSS VL: DIQLTQSPSFLSASVGDRVTITCWASQGISSYLAWYQQKPGKAPKLLIYTASTLQSGVPSRFSGSGSGTEFTLTISSLQPEDFATYYCQQLNSYPLTFGGGTKVEIK
4.85

Provide one value: measured IC50 of IMPI-029 (antibody, V domains shown) VH: EVQLVESGGGLIQPGGSLRLSCAASGVTVSSNYMNWVRQAPGKGLEWVSVIYSGGSTYYADSVKGRFTISRDNSKNTLFLQMNSLRAEDSAVYYCARDLGPYGVDVWGQGTTVTVSS VL: DIQLTQSPSFLSASVGDRVTITCWASQGISSYLAWYQQKPGKAPKLLIYAASTLQSGVPSRFSGSGSGTEFTLTISSLQPEDFATYYCQELNSYPLTFGQGTRLEIK
1.26

Provide one value: measured IC50 of IMPI-055 (antibody, V domains shown) VH: QVQLVQSGAEVKKPGASVKVSCKASGYTFTSYDINWVRQATGQGLEWMGWMNPNSGNTGYAQKFQGRVTMTRDTSINTAYMELSSLRSEDTAVYFCARGGRYCSDVTCYSGEPFDYWGQGTLVTVSS VL: EIMLTQSPDFQSVTPKEKVTITCRASQSIGSSLHWYQQKPDQSPKLLIKFASQSISGVPSRFSGSGSGTDFTLTINSLEAEDAAAYYCHQSSSLPHTFGPGTKVEIK
3.39
